# Tested on: PPARg DBDmut:RXRa IVT, anti-PPARg (DBD mutation: PPARg1 K132A/R137A, NR concentration 270 nM, RXRa partner concentration 90 nM)
# procedureDetails: PBM binding z-score (relative to random genomic background probes); higher = stronger binding; sequences stand for … in GC…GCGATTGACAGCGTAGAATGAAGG
PBM binding z-score by entry:
Answer with the value's number alone.

Known PBM binding z-score results, listed for orientation:
TTACCAAGGTGAGATGAGGTCGTTGATCCAACTC	-0.0123
TCTATTCGTTGAAGGGCAACCGACGAGTCCGTTT	0.959
CCTCGGAGGACAACAGGAGGTCAGAGGTGCCAGA	-1.23
CGTCGAAGGTCATAGGAGGTCAGTGAAGACAGAT	-0.37
GCAGACAGGTGAACCGCAGGTAACTCAGGGTGGC	-0.564

q: So what's the measured PBM binding z-score for this one? `ACAGACAGGTGATGAAGGTTACTCAGGCTATCAT`
a: 0.785

q: Quick one: PBM binding z-score of `ACTATTAGTTGACTTAGGGCACCCGATACGACGC` ?
a: 1.12

q: Report PBM binding z-score for `CTCGATAGGTCGTGCTCAGGTGAGTATACCAAAC` please.
a: -0.285

q: # get_value(readout='PBM binding z-score', item= `CTCGAAAGGTCGGTTGAGGTGAGTATACGGATAA` )
a: 0.597

* * *

# Test system: RXRa DBDmut IVT, anti-RXR (DBD mutation: RXRa K156A/R161A, NR concentration 90 nM)
# procedureDetails: PBM binding z-score (relative to random genomic background probes); higher = stronger binding; sequences stand for … in GC…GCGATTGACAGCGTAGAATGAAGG
If the reported PBM binding z-score equals or exceeds 0.7, assign met. If not, assign not met.

Examples with answers:
TAGCCTATGTCATTGGGCCAGTATAGTACGCATC	not met
GCTGCTAGGTCAACTAATGGTCAGCTAAAGCTCG	met
CCTAACGGGTCACTCCAGGTTATAGCATCGGAGT	met
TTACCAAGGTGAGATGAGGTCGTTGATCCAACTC	not met
GTACCAAGGTGAATAAGTCGTTGATGAGTAGGCG	not met
ACTAGCAGGCCAAGCGTCACTCAAGATTAGTCCG	not met
AGAATGAGGTTACCAACGATCAGGGAAACGCTTG	met
GCCATTAGTTGAAAGGGCAACCGAATGATTCTCG	not met
GCGACTGGGGCATCATCAGGTTACCATAACTTAA	not met
TCTTGTAAATCAAGCAGGTTAAGAAAGCCTGAGT	met

q: Is PBM binding z-score at least 0.7? Consider `CGAACTAGGACAGAACAGGACAGTGAAGGATGAT`
a: not met

q: Entry `CTACCAAGGTGAGCAAGGTCGTTGATTACTATTC` : is its PBM binding z-score no less than 0.7?
a: met

* * *

# Test system: FXR:RXRa (NR concentration 270 nM, RXRa partner concentration 90 nM)
# procedureDetails: PBM binding z-score (relative to random genomic background probes); higher = stronger binding; sequences stand for … in GC…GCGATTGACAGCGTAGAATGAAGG
Hi, to clarify the labels: t covers PBM binding z-score from 0.4 upward, f covers anything below 0.4.

q: Check if PBM binding z-score >= 0.4 (inclusive). Item: `TAAATGAGGTTAAAGATCAGGGAACGTGGCGTCG`
a: t

q: Form field: PBM binding z-score at least 0.4? Entry: `CGCCCAAGGTCAAAGGTCAGTGAAGAGATGACGG`
a: t

q: State whether the measured PBM binding z-score reaches 0.4, counting equality as reaching it, for `ATCGAAAGGTCGAGGTAAGTATAGAGAAAGGGAA`
a: t

q: Assess whether reported PBM binding z-score for `AGAACGAGGGCACGCTGAGTTGATACCAGAGTAG` sits at 0.4 or higher.
a: t

q: Does `CAAACTTGGTCACAGAGGTCAAAGTCCGTGCGTA` have a reported PBM binding z-score of at least 0.4?
a: t

q: Please check the record `ACAGACTGGTGAGTGAAGGTAACTCAGCTGGACG` and state if its PBM binding z-score is at or above 0.4.
a: f

q: Dear colleague, could you confirm whether `TCTTGTAGATCAACAGGAGGATAAGAAAGATCGA` has PBM binding z-score at or above 0.4?
a: f

q: Reported PBM binding z-score at or above 0.4? `TCTGCTAGGTCAATTGGTCAGCTAACGAGCTGCC`
a: t

q: Could you please find out whether `GGATATAGGTAATACAAGGTGAAAGTCCGATTGT` has PBM binding z-score that meets 0.4 or exceeds it?
a: t

q: Evaluate `GCGACTGGGGCCAAGCAGGTTACCATAAGGTTGG` : PBM binding z-score at minimum 0.4?
a: f

q: State whether the measured PBM binding z-score reaches 0.4, counting equality as reaching it, for `CCTATTAGTTGACCATAAGGGCAACCAAAGCTCG`
a: t

q: Confirm if PBM binding z-score reported for the sequence `TAGCCTAGGTCATTCGGCCAGTATAGTACGCATC` is 0.4 or above.
a: t

q: For this sequence, is measured PBM binding z-score 0.4 or higher? `GCGACTAGGGCAAAGCAGGTTACCATAAGGTTGG`
a: f

q: Does the sequence `TAGGCTAGGTCAGATCGGGCCAGTATACGCTATA` have recorded PBM binding z-score that is 0.4 or more?
a: t

q: Could you please find out whether `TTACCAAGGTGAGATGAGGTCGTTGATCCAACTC` has PBM binding z-score that meets 0.4 or exceeds it?
a: t

q: Is PBM binding z-score for `CGTCCATGGTCAGCAGGTCAGTGAAAGCGACGTG` at or above 0.4?
a: f

q: Answer whether PBM binding z-score of `TATACAGGGTCAAAGGCGAGAGTACGAATGTCGA` is greater than or equal to 0.4.
a: t

q: Decide: PBM binding z-score of `CGATCTAGGTCAGAACAGGACAGTGAAGGATGAT` >= 0.4?
a: t
